# Procedure Details: Thermal stability test of crystal of compound (1) (change in content of compound (E-3) on heating)
# Assay type: physicochemical
# Measurement Setup: heating at 70° C. for 192 hours
Outcome Measure: Thermal stability of the crystal (conclusion in words)

| Compound | Result |
| --- | --- |
| C[C@H](Cc1cc2c(c(C(N)=O)c1)N(CCCO)CC2)NCCOc1ccccc1OCC(F)(F)F [Example C2] | stable |
| C[C@H](Cc1cc2c(c(C(N)=O)c1)N(CCCO)CC2)NCCOc1ccccc1OCC(F)(F)F [Example C1] | stable |
| C[C@H](Cc1cc2c(c(C(N)=O)c1)N(CCCO)CC2)NCCOc1ccccc1OCC(F)(F)F [Example C4] | stable |
| C[C@H](Cc1cc2c(c(C(N)=O)c1)N(CCCO)CC2)NCCOc1ccccc1OCC(F)(F)F [Example C3] | stable |

* * *

# Procedure Details: Thermal stability test of crystal of compound (1) (change in content of compound (E-3) on heating)
# Format: physicochemical
# Measurement Setup: after heating of the crystal at 70° C. for 192 hours; HPLC peak area ratio, 225 nm
Outcome Measure: Content (Y) of compound (E-3) measured after test (%)
Write down the numeric answer in % and omit the unit.

Worked examples, 4 molecules total:
| Molecule | Output Unit | Result Number |
| --- | --- | --- |
| C[C@H](Cc1cc2c(c(C(N)=O)c1)N(CCCO)CC2)NCCOc1ccccc1OCC(F)(F)F [Example C2] | % | 0.088 |
| C[C@H](Cc1cc2c(c(C(N)=O)c1)N(CCCO)CC2)NCCOc1ccccc1OCC(F)(F)F [Example C1] | % | 0.044 |
| C[C@H](Cc1cc2c(c(C(N)=O)c1)N(CCCO)CC2)NCCOc1ccccc1OCC(F)(F)F [Comparative Example C1, reference compound] | % | 0.133 |
| C[C@H](Cc1cc2c(c(C(N)=O)c1)N(CCCO)CC2)NCCOc1ccccc1OCC(F)(F)F [Example C3] | % | 0.097 |

Next molecule, please.
# Content (Y) of compound (E-3) measured after test lookup, item C[C@H](Cc1cc2c(c(C(N)=O)c1)N(CCCO)CC2)NCCOc1ccccc1OCC(F)(F)F [Example C4]
0.091

* * *

# Procedure Details: Thermal stability test of crystal of compound (1) (change in content of compound (E-3) on heating)
# Format: physicochemical
# Measurement Setup: before heating; HPLC peak area ratio, 225 nm
Items are presented alongside their recorded Content (X) of compound (E-3) measured before test.
Please reply with the bare figure in % and do not write the unit itself.

| Compound | Output Unit | Result Number |
| --- | --- | --- |
| C[C@H](Cc1cc2c(c(C(N)=O)c1)N(CCCO)CC2)NCCOc1ccccc1OCC(F)(F)F [Example C1] | % | 0.043 |
| C[C@H](Cc1cc2c(c(C(N)=O)c1)N(CCCO)CC2)NCCOc1ccccc1OCC(F)(F)F [Example C3] | % | 0.071 |
| C[C@H](Cc1cc2c(c(C(N)=O)c1)N(CCCO)CC2)NCCOc1ccccc1OCC(F)(F)F [Comparative Example C1, reference compound] | % | 0.091 |

Name the reported Content (X) of compound (E-3) measured before test value associated with the compound C[C@H](Cc1cc2c(c(C(N)=O)c1)N(CCCO)CC2)NCCOc1ccccc1OCC(F)(F)F [Example C2]
0.076

I would be grateful if you could share the reported Content (X) of compound (E-3) measured before test for C[C@H](Cc1cc2c(c(C(N)=O)c1)N(CCCO)CC2)NCCOc1ccccc1OCC(F)(F)F [Example C4] .
0.067
